# targetOrTestSystem: HLA-B*08:01
# experiment: IEDB peptide-MHC binding, purified MHC/competitive/radioactivity; filed as Kd, often an IC50 or EC50 that approximates it; bounds were set here for any values at or beyond the usual limits of such assays
# conditionDetails: source organism: Vaccinia virus Copenhagen
pKd: −log10 of the molar value.

{"columns": ["sequenceChain", "pKd"],
 "data": [
  ["GIRPRFLSQ", 6.66],
  ["SIFIRMLIL", 8.00],
  ["NRMEIFLVL", 8.31]
]}

---

# targetOrTestSystem: HLA-A*03:01
# experiment: IEDB peptide-MHC binding, purified MHC/direct/fluorescence; filed as Kd, often an IC50 or EC50 that approximates it; bounds were set here for any values at or beyond the usual limits of such assays
# conditionDetails: source organism: Mycobacterium tuberculosis C
pKd: −log10 of the molar value.

{"columns": ["sequenceChain", "pKd"],
 "data": [
  ["TPKIRFWHV", "≤ 4.70"]
]}

---

Recorded pKd, one value per entry.
# targetOrTestSystem: HLA-A*11:01
# experiment: IEDB peptide-MHC binding, purified MHC/competitive/radioactivity; filed as Kd, often an IC50 or EC50 that approximates it; bounds were set here for any values at or beyond the usual limits of such assays
# conditionDetails: source organism: Dengue virus 3 Martinique/1243/1999
pKd: −log10 of the molar value.
quantityMeasured: pKd

{"columns": ["sequenceChain", "quantityMeasured", "numericValue"],
 "data": [
  ["GTILIKVEYK", "pKd", 7.16],
  ["VTFKNAHAK", "pKd", 7.23]
]}

---

# targetOrTestSystem: HLA-A*11:01
# experiment: IEDB peptide-MHC binding, purified MHC/direct/fluorescence; filed as Kd, often an IC50 or EC50 that approximates it; bounds were set here for any values at or beyond the usual limits of such assays
# conditionDetails: source organism: Salmonella enterica
quantityMeasured: Kd

{"columns": ["sequenceChain", "result"],
 "data": [
  ["EEQTDPKTL", "≥ 20 µM"]
]}

---

Entries annotated with measured pKd
# targetOrTestSystem: HLA-B*44:03
# experiment: IEDB peptide-MHC binding, purified MHC/competitive/radioactivity; filed as Kd, often an IC50 or EC50 that approximates it; bounds were set here for any values at or beyond the usual limits of such assays
# conditionDetails: source organism: Lymphocytic choriomeningitis virus (strain Armstrong)
pKd: −log10 of the molar value.

{"columns": ["sequenceChain", "pKd"],
 "data": [
  ["KDLQRLRSL", "≤ 4.18"],
  ["EDQLLPFMS", "≤ 4.11"]
]}

---

# targetOrTestSystem: HLA-A*69:01
# experiment: IEDB peptide-MHC binding, purified MHC/direct/fluorescence; filed as Kd, often an IC50 or EC50 that approximates it; bounds were set here for any values at or beyond the usual limits of such assays
# conditionDetails: source organism: Burkholderia mallei

{"columns": ["sequenceChain", "Kd"],
 "data": [
  ["ISDSAQNMM", "≥ 20 µM"]
]}

---

# targetOrTestSystem: HLA-B*44:02
# experiment: IEDB peptide-MHC binding, purified MHC/competitive/radioactivity; filed as Kd, often an IC50 or EC50 that approximates it; bounds were set here for any values at or beyond the usual limits of such assays
# conditionDetails: source organism: Mammarenavirus guanaritoense
Listed below: Kd values for each entry.

{"columns": ["sequenceChain", "Kd"],
 "data": [
  ["EDFLLMYEM", "582 nM"],
  ["AEAYCTGML", "182 nM"],
  ["DESALNISGY", "10900 nM"]
]}

Data provenance is the Immune Epitope Database (IEDB).
